Listing of recorded melting point by entry.

CCc1c([N+](=O)[O-])c(C(N)=O)nn1C1CN(C(c2ccccc2)c2ccccc2)C1 ... 254 to 257 °C

Consider the compound CCC(C)C(C)C(=O)Nc1ccc2c(C)cn3c(=O)c(C(=O)NCCN4CCN(C(c5ccccc5)c5ccccc5)CC4)cnc3c2c1 (configuration not stated) and give its measured melting point.
226 to 230 °C

Please report the recorded melting point for O=C1Nc2ccc3cn[nH]c3c2C1=O .
> 300 °C

What measured melting point goes with COc1ccc(-c2[nH]c(-c3cccc4ccccc34)nc2C(=O)Nc2nccs2)cc1 ?
198 to 200 °C

// returns reported melting point for input Oc1c(Cl)cc(Cn2c(=S)sc3ccccc32)cc1Cl
169 to 172 °C

Item COc1cccc(-c2ccc3c(c2)C(C)(C)C(=O)N3)c1 has what recorded melting point?
157 to 158 °C

What value of measured melting point is listed for COc1ccc2c(c1)CCC1(CCCCN1C(=O)C(F)(F)F)C2 (configuration not stated) ?
75 to 76 °C

Request the reported melting point associated with O=C(Nc1nonc1-c1ccccc1)NC1CCC(C(F)(F)F)CC1 (configuration not stated)
212 °C

So what's the measured melting point for this one? CSc1ccc(Oc2ccc([N+](=O)[O-])cc2C#N)cc1
124 to 126 °C

Recorded melting point for C=CCON=C(CCC)C1=C(O)CC(c2ccc(OC)c(NC(C)=O)c2)CC1=O (configuration not stated) , please?
136 to 137 °C

Which measured melting point value corresponds to N#Cc1ccc2c(c1)C(c1ncnc3nn(C4CCCCC4)cc13)C(=O)N2 (configuration not stated) ?
> 325 °C

Consider the compound shown here: CC(=O)OCc1nc2c(NCc3c(C)cccc3C)cc(Br)cc2n1C What is its recorded melting point?
188 to 190 °C

Look up melting point for this compound: C/C=C/CNC(=O)N1CC(Oc2cccc(C(F)(F)F)c2)C1
127 to 128 °C

Given the entry CN(CCOc1ccc(OC(F)(F)F)cc1)C1CCN(c2ccc(OC[C@@]3(C)Cn4cc([N+](=O)[O-])nc4O3)cc2)CC1 , report its measured melting point.
186 to 188 °C

Reported melting point, compound COc1cc(OC)nc(Oc2c(Cl)cccc2C(=O)O)n1 : ____
151 to 152 °C

Dear colleague, I am looking for the recorded melting point of the following compound: CCc1nc2cc(C(F)(F)F)c(Cl)cc2n1-c1ccc(CCOC(=O)NS(=O)(=O)c2cn(C)cn2)cc1
204 °C

Using the record for CN(C(=O)Nc1ccc(Cl)cc1)c1nnc(Br)s1 , report its melting point.
250 °C

Request the reported melting point associated with CCOC(=O)C1=C(C)NC(C)=C(C(=O)OC)C1c1ccccc1C#N (configuration not stated)
178 °C

All figures here come from a melting point compilation (Tetko et al.; mined from patent text by program, amines drawn as free bases though some values may be those of a salt).
